- Tested on: SW-620 colon
- method: NCI-60 one-dose screen, 48 h
- measurement-context: 10 µM unless noted
Compounds without any hit were thinned out: in the full panel of roughly 83,000, 20% have a hit. Active and inactive are the calls of the source. The calls were made as follows: active = growth percent below 10; inactive = the rest.
Response enum: active, inactive

In: For O=C(NO)c1ccc(Cn2c(=O)n(CCc3ccc(O)cc3)c(=O)c3ccccc32)cc1 , what call appears in the results of this test?
Out: inactive

In: For Cn1cccc1/C=C1/SC(=S)N(CCc2ccc(O)cc2)C1=O , what call appears in the results of this test?
Out: inactive

In: For COc1ccc2nc(-c3c(-c4ccccc4)nc4ncccn34)[nH]c2c1 , what call appears in the results of this test?
Out: inactive

In: For Nc1ccccc1NC(=O)c1ccc(CN2CCC/C(=C\c3ccccn3)C2=O)cc1 , what call appears in the results of this test?
Out: inactive

In: For COc1cccc(-c2nn(-c3ccccc3)cc2-c2ccnc(NCCCN)c2)c1 , what call appears in the results of this test?
Out: inactive

----------
- Tested on: SF-268 CNS
- method: NCI-60 one-dose screen, 48 h (100 = growth as untreated, 0 = no growth, -100 = all killed)
- measurement-context: 10 µM unless noted
The panel holds about 83,000 compounds, 20% with a hit somewhere; the sample as a whole holds those more often.
I'd appreciate it if you could supply growth values for the items below.
Answers are plain numbers, in %.

Here's what some known entries look like.
                                   molecule  measured_attribute  value_unit  measured_value
0  COC(=O)C(Cc1ccccc1)n1cc(COc2nc(Cl)nc(Nc3ccc(Cl)cc3)n2)nn1 (stereo not given)              growth           %            97.8
1  C#CCn1c2c(c3ccccc31)C[C@]1(C)[C@H]3CC[C@@H]4[C@@H]5C(=CCC[C@H]5C(=C)C)CC[C@@]4(C)[C@]3(C)CC[C@H]1C2(C)C              growth           %            97.8
2  c1ccc(CN2C(c3ccccc3)=Nc3ccccc3C2c2c[nH]c3ccccc23)cc1 (stereo not given)              growth           %            71.2
3              Nc1c(Cl)cc(N=Nc2ccccc2)cc1Cl              growth           %             102

From here, focus on the item given below.
Entry O=C(O)/C(=C/c1ccc(O)cc1)c1ccccc1 ; growth = 95.8

----------
- Tested on: MDA-MB-435 melanoma
- method: NCI-60 one-dose screen, 48 h
- measurement-context: 10 µM unless noted
This is part of a sample that, as a whole, favours compounds with a hit. Of some 83,000 tested, about 20% had one in any assay. Active and inactive are the calls of the source. Rule for the calls: active = growth percent below 10; inactive = the rest.
Response enum: Y (active), N (inactive)

# count of solved cases: 2
smiles-text	label-value
N#C/C(=C\c1ccc(-c2ccccc2)o1)c1nc(-c2ccco2)cs1	N
S=c1[nH]nc2ccccn12	N

Okay, now this compound:
In: For N#Cc1c(-c2ccco2)nc2c(c(-c3ccccc3)nn2-c2ccccc2)c1-c1ccc(O)cc1 , what call appears in the results of this test?
Out: N

----------
- Test system: EKVX NSCLC
- method: NCI-60 one-dose screen, 48 h (100 = growth as untreated, 0 = no growth, -100 = all killed)
- measurement-context: 10 µM unless noted
The panel holds about 83,000 compounds, 20% with a hit somewhere; the sample as a whole holds those more often.
Could you mark each record label 1 if its growth falls strictly under 80%, and label 0 if it equals or exceeds it?

In [3]: df
Out[3]:
                                smiles_text  experimental_system  label_value
0  C=C(C)[C@@H]1CC[C@]2(C(=O)NNC(=O)c3cccnc3)CC[C@]3(C)[C@H](CC[C@@H]4[C@@]5(C)CCCNC(C)(C)[C@@H]5CC[C@]43C)[C@@H]12           EKVX NSCLC      label 0

In: growth strictly < 80% for this molecule? COc1ccc2c(c1)c(-c1nc(-c3cn(C)c4ncccc34)cs1)cn2CCCN1CCCCC1
Out: label 1

In: growth strictly < 80% for this molecule? C=C1C(=O)O[C@H]2[C@H]1CC/C(Cn1cc(-c3ccc(F)cc3)nn1)=C\CC[C@@]1(C)O[C@@H]21
Out: label 1

In: growth strictly < 80% for this molecule? CCC(=O)c1c(C)[nH]c(C)c1C
Out: label 0

In: growth strictly < 80% for this molecule? C#CCn1c(C)cc(C)c(C#N)c1=O
Out: label 0

In: growth strictly < 80% for this molecule? CCN(CC)C(=O)CCCCCn1c2ccccc2c2c3c(c4c5ccccc5[nH]c4c21)C(=O)N(O)C3=O
Out: label 1

In: growth strictly < 80% for this molecule? O=C(/C=C/c1cccc2ccccc12)Nc1ncc(Cc2ccccc2)s1
Out: label 1

In: growth strictly < 80% for this molecule? COc1cc(/C=N/Nc2ncnc3c2c(C)nn3-c2ccc(F)cc2)ccc1O
Out: label 0

----------
- Test system: SF-295 CNS
- method: NCI-60 one-dose screen, 48 h (100 = growth as untreated, 0 = no growth, -100 = all killed)
- measurement-context: 10 µM unless noted
This is part of a sample that, as a whole, favours compounds with a hit. Of some 83,000 tested, about 20% had one in any assay.
I'd appreciate it if you could supply growth values for the items below.
Give bare numbers, in %.

smiles-text	measured-value
C=C(C)[C@@H]1CC[C@]2(C(=O)OC)CC[C@]3(C)[C@H](CC[C@@H]4[C@@](C)(CC/C(N)=N/O)[C@H](C(=C)C)CC[C@]43C)[C@@H]12	96.4
CC(=O)c1c(C)[nH]c(-c2nc3ccc(N4CCN(C)CC4)cc3[nH]2)c1-c1ccc(OCC2CCOCC2)cc1	43.3

From here, focus on the item given below.
Entry COC(=O)[C@]12CC[C@@H](C)[C@H](C)[C@@H]1C1=CC[C@@H]3[C@@]4(C)C[C@@H](OC(C)=O)[C@H](O)[C@@](C)(COC(C)=O)[C@@H]4[C@H](O)C[C@@]3(C)[C@]1(C)CC2 ; growth = -91.8

----------
- Tested on: M14 melanoma
- method: NCI-60 one-dose screen, 48 h (100 = growth as untreated, 0 = no growth, -100 = all killed)
- measurement-context: 10 µM unless noted
Compounds without any hit were thinned out: in the full panel of roughly 83,000, 20% have a hit.
Binning rule for recorded growth: LOW: < 40%; MEDIUM: ≥ 40% and < 90%; HIGH: ≥ 90%

# count of solved cases: 5
>>> df
                                   compound  label_value
0        COc1ccc(C(=O)c2ccc(C)cc2)c(OC)c1OC       MEDIUM
1       CCCCCCCCNc1cccc2c1C(=O)c1ccccc1C2=O         HIGH
2  O=C(/C(=C(\C(=O)c1ccccc1)c1ccccc1)c1ccccc1)c1ccccc1       MEDIUM
3  COc1cc2c3c(c4c5ccccc5[nH]c4c2c(OC)c1OC)C(=O)N(O)C3=O          LOW
4  O=C1CCN2C(=O)Nc3ccccc3C2C1 (stereo not given)       MEDIUM

In: GET /class?item= C=C1C(=O)O[C@H]2[C@H]1CC/C(COC(=O)N[C@H](Cc1c[nH]c3ccccc13)C(=O)OC)=C\CC[C@@]1(C)O[C@@H]21
Out: MEDIUM

In: GET /class?item= CCCCN1CCCCn2c1nc1c2c(=O)n(C)c(=O)n1C
Out: HIGH

In: GET /class?item= OCCNc1nc(Nc2ccc(Cl)c(Cl)c2)nc2ccccc12
Out: LOW

In: GET /class?item= CC1(C)C(=O)/C(=C\c2ccccn2)C[C@]2(C)[C@H]3CC[C@@H]4[C@@H](C(=O)/C=C/c5ccccn5)CC[C@@]4(C)[C@]3(C)CC[C@@H]12
Out: LOW

In: GET /class?item= COc1cc(/C=N/NC(=S)NNC(=S)NC2CCCCC2)cc(OC)c1OC
Out: HIGH

----------
- Test system: UACC-62 melanoma
- method: NCI-60 one-dose screen, 48 h
- measurement-context: 10 µM unless noted
This is part of a sample that, as a whole, favours compounds with a hit. Of some 83,000 tested, about 20% had one in any assay. Activity calls are given as the source filed them. Rule for the calls: active = growth percent below 10; inactive = the rest.
Response enum: t for active, f for inactive

>>> df
                                   compound  label_value
0  CC(=O)NC1=C(C#N)C(c2ccccc2Cl)c2c(ccc3ccccc23)O1 (centres undefined)            f
1     CC1=NN(c2ccc(S(=O)(=O)O)cc2Cl)C(=O)C1            f
2  CC(C)/C=C/CC[C@](C)(O)[C@H]1CC[C@]2(C)[C@@H]1CC[C@@H]1[C@@]3(C)C/C(=C/c4cccc(C(F)(F)F)c4)C(=O)C(C)(C)[C@@H]3CC[C@]12C            f
3  N#CC1=C(N)Oc2c(c(N)nn2-c2ccccc2)C1c1ccc(Cl)cc1 (centres undefined)            f
4                 C#CCn1c(C)cc(C)c(C#N)c1=O            f
5  CC(C)=CCC/C(C)=C/CC/C(C)=C/CSC[C@H](NC(=O)CCCCCN1CCN(C)CC1)C(=O)NC1CCCCCC1            t
6  c1ccc2[nH]c(-c3cc(-c4ccc5c(c4)OCO5)n[nH]3)nc2c1            f
7  COc1ccc(-c2cc(-c3cccs3)n(N=O)c(=O)c2C#N)cc1            f

Okay, now this compound:
In: For Cc1ccc2c(c1)c1nc3cc(C)c(C)cc3nc1n2CCN(C)C , what call appears in the results of this test?
Out: f
